FYI, the data here is from the supplement of paper PMC10724198.

# reported protein stability index; entries follow
Tested on: Saccharomyces cerevisiae;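 further: PSI is a weighted mean of sequencing reads over stability bins, variants kept only with over 10 reads, mCherry proximal and sfGFP distal, peptide attached via GGGS linker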
Experiment: protein stability index of tFT-peptide fusion (C-terminal peptide) (PSI (0-1 scale)); higher = more stable (slower turnover)
Details: genetic background: das1 deletion; temperature: 30 C

Completed entries (count: 4):
INSERT INTO measurements (record_sequence, tgt, result) VALUES
  ('GRVAIFTLLWRI', 'Saccharomyces cerevisiae', 0.256),
  ('FVLWWGWSWLVV', 'Saccharomyces cerevisiae', 0.173),
  ('FFVFVVFFCFGL', 'Saccharomyces cerevisiae', 0.303),
  ('LFMLHFLAVLRY', 'Saccharomyces cerevisiae', 0.272);

Problem: What protein stability index value was documented for this sequence, RYCVVDISAFCD ?
Solution: 0.368

Problem: What protein stability index value was documented for this sequence, CMILVACFYLPS ?
Solution: 0.29

Problem: What protein stability index value was documented for this sequence, IVFGWGVEWGRL ?
Solution: 0.692
